- method: Haemolysis assay
- Assay type: cell-based
- assay_setup: human red blood cells (erythrocyte suspension), 200.00 μg/mL, 1 h at 37 ℃, read-out: Haemolysis rate
hemolysis at 1 h, 200 μg/mL class ranges: bin 1: < 50%; bin 2: ≥ 50% and < 80%; bin 3: ≥ 80%

Consider the worked cases shown below.
INSERT INTO measurements (compound, assigned_label) VALUES
  ('C[N+](CCO)(CCO)CCCCCCCCCCCCSc1nnc(-c2ccccc2)o1 [Compound 2, reference compound]', 'bin 3'),
  ('C[N+](CCO)(CCO)CCCCCCCCSc1nnc(-c2ccc(C(F)(F)F)cc2)o1', 'bin 1'),
  ('C[N+](CCO)(CCO)CCCCCCCCCCCCSc1nnc(-c2ccc(C(F)(F)F)cc2)o1.[Br-]', 'bin 3'),
  ('[H]/N=C(\N/C(=N/[H])NCCCCCCNC(=N)NC(=N)Nc1ccc(Cl)cc1)Nc1ccc(Cl)cc1 [CA, chlorhexidine acetate, reference compound]', 'bin 3'),
  ('C[N+](CCO)(CCO)CCCCCCSc1nnc(-c2ccc(F)cc2)o1', 'bin 1'),
  ('C[N+](CCO)(CCO)CCCCCCCCCCCCSc1nnc(-c2ccc(F)cc2)o1', 'bin 2');

Which band does C[N+](CCO)(CCO)CCCCCCCCCCCCSc1nc2ccccc2s1 [Compound 13d] fall in?
bin 2

Which band does C[N+](CCO)(CCO)CCCCCCSc1nnc(-c2ccc(C(F)(F)F)cc2)o1 fall in?
bin 1

Which band does C[N+](CCO)(CCO)CCCCCCCCCCSc1nnc(-c2ccc(C(F)(F)F)cc2)o1.[Br-] fall in?
bin 3

Which band does C[N+](CCO)(CCO)CCCCCCCCCCSc1nnc(-c2ccc(F)cc2)o1 fall in?
bin 2
